- Test system: Enterococcus sp.
- ASSAY NAME: in vitro antibacterial evaluation, MIC by broth dilution
- Format: cell-based
- CONDITION NOTES: broth dilution, 18 hours at 35° C.; strain GC 4558
Square brackets hold non-standard residues; d marks the D form. Peptide text beside a SMILES is read from it. * marks the point of attachment. ξ: configuration not given here. ξEnduracididine(βξ-OH,4'ξ) = N=C1NCC(C(O)C(N)C(=O)O)N1; X2 = OCC1OC(OC2C(CO)OC(*)C(O)C2O)C(O)C(O)C1O
For each entry below, report its MIC Enterococcus avium (GC 4558) value.

Query: Reported MIC Enterococcus avium (GC 4558) for N=C1NCC(C(O)C2NC(=O)C(Cc3ccc(OC4OC(CO)C(OC5OC(CO)C(O)C(O)C5O)C(O)C4O)cc3)NC(=O)C(Cc3ccccc3)NC(=O)CNC(=O)C(CO)NC(=O)C(C(O)C3CNC(=N)N3)NC2=O)N1 (stereo not drawn) [Example 296] (cyclo(GFY(X2)[ξEnduracididine(βξ-OH,4'ξ)][ξEnduracididine(βξ-OH,4'ξ)]S); configuration not given here) : what is it?
Reply: 128 mg/L

Query: Field request: MIC Enterococcus avium (GC 4558) | item: CC(c1ccccc1)C1NC(=O)CNC(=O)C(CO)NC(=O)C(C(O)C2CNC(=N)N2C2OC(CO)C(O)C(O)C2O)NC(=O)C(C(O)C2CNC(=N)N2)NC(=O)C(Cc2ccc(OC3OC(CO)C(OC4OC5COC(Cc6ccc(F)cc6)OC5C(O)C4O)C(O)C3O)cc2)NC1=O (stereo not shown)
Reply: 4 mg/L

Query: I would be grateful if you could share the reported MIC Enterococcus avium (GC 4558) for CC(c1ccccc1)C1NC(=O)CNC(=O)C(CO)NC(=O)C(CC2CNC(=N)N2C2OC(CO)C(O)C(O)C2O)NC(=O)C(CC2CNC(=N)N2)NC(=O)C(Cc2ccc(OC3OC(CO)C(OC4OC(CO)C(O)C(O)C4OCc4ccc(OCc5ccccc5)cc4)C(O)C3O)cc2)NC1=O (stereo not shown) [Example 246c] .
Reply: 64 mg/L

Query: What does the record list as MIC Enterococcus avium (GC 4558) for CC(c1ccccc1)C1NC(=O)CNC(=O)C(CO)NC(=O)C(CC2CNC(=N)N2C2OC(CO)C(O)C(O)C2O)NC(=O)C(CC2CNC(=N)N2)NC(=O)C(Cc2ccc(OC3OC(CO)C(OC4OC(CO)C(O)C(OCc5ccc(OCc6ccccc6)cc5)C4O)C(O)C3O)cc2)NC1=O (stereo not shown) [Example 246b] ?
Reply: 64 mg/L

Query: Would you kindly share the measured MIC Enterococcus avium (GC 4558) for COc1ccc2cc(COCC3OC(OC4C(CO)OC(Oc5ccc(CC6NC(=O)C(C(C)c7ccccc7)NC(=O)CNC(=O)C(CO)NC(=O)C(CC7CNC(=N)N7C7OC(CO)C(O)C(O)C7O)NC(=O)C(CC7CNC(=N)N7)NC6=O)cc5)C(O)C4O)C(O)C(O)C3O)ccc2c1 (stereo not shown) ?
Reply: 16 mg/L

Query: Name the reported MIC Enterococcus avium (GC 4558) value associated with the compound COc1ccc2cc(COC3C(CO)OC(OC4C(CO)OC(Oc5ccc(CC6NC(=O)C(C(C)c7ccccc7)NC(=O)CNC(=O)C(CO)NC(=O)C(CC7CNC(=N)N7C7OC(CO)C(O)C(O)C7O)NC(=O)C(CC7CNC(=N)N7)NC6=O)cc5)C(O)C4O)C(O)C3O)ccc2c1 (stereo not shown) [Example 245a]
Reply: 4 mg/L

Query: I would be grateful if you could share the reported MIC Enterococcus avium (GC 4558) for CC(c1ccccc1)C1NC(=O)CNC(=O)C(CO)NC(=O)C(C(O)C2CNC(=N)N2C2OC(CO)C(O)C(O)C2O)NC(=O)C(C(O)C2CNC(=N)N2)NC(=O)C(Cc2ccc(OC3OC(CO)C(OC4OC5COC(CC6CCN(C(=O)OCc7ccccc7)CC6)OC5C(O)C4O)C(O)C3O)cc2)NC1=O (stereo not shown) .
Reply: 2 mg/L

Ref: patent US6914045B2
